- studySystem: T1, CD73 on the surface of human cells (human, UniProt P21589 27-549)
- T1 construct: whole, on cells; The cell line of each value is named under assay or readout; also called CD73 on the surface of tumor cells; CD73 enzyme on the surface of MDA-MB-231 cells
- T1 sequence (looked up): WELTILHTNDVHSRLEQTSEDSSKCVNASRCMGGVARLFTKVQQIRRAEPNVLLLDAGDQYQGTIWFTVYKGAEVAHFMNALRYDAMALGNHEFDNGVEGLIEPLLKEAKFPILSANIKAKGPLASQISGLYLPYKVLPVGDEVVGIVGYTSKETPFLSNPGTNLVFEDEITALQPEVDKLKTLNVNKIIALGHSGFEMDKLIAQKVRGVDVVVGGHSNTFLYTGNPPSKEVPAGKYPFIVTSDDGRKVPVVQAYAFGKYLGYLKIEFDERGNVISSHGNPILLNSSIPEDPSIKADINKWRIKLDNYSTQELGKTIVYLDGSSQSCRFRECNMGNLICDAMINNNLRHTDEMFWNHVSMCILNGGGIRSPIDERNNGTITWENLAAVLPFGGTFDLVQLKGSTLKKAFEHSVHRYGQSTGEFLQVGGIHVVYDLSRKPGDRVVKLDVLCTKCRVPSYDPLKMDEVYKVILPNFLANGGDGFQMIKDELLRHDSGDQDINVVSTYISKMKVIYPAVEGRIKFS
- measurementDescription: flow cytometry on NCI-H1975 cells
assayMetric: EC50 (µg/mL)

Input: I have this binder here, chimeric nanobody 4-D04 (Fc fusion, Human-alpaca chimeric antibody) VHH: QLQLVESGGGLVQPGGSLRLSCAASGFTLDYYNIGWFRQAPGKEREGVSCISSSEGSTYYADSVKGRFTISRDNAKNTVYLQMNSLKPEDTAVYYCAADRYYYCSLHVSQYDYWGQGTLVTVSS , and I need its recorded EC50.
Output: 0.068

Input: I have this binder here, chimeric nanobody 4-B02 (Fc fusion, Human-alpaca chimeric antibody) VHH: EVQLVESGGGLVQPGGSLRLSCAASGFPLDYYSIGWFRQAPGKEREGVSCIGSSDGSTYYADSVKGRFTISRDNAENTVWLQMNSLKPEDTAVYYCAALKYYYCSGHEAIYDYWGQGTQVTVSG , and I need its recorded EC50.
Output: 0.055

Input: I have this binder here, chimeric nanobody 3-D7 (Fc fusion, Human-alpaca chimeric antibody (VHH on hIgG1 Fc); Only the VHH is tied to the tested molecule; 37-39 exist for 3-D7-FC1/FC2/FC3; also called original antibody 3-D7) VHH: QRQLVESGGGLVQPGGSLRLSCAASGFLLDYYVIGWFRQAPGKEREGVSCISGSDRSTYYADSVKGRFTISRDNAKNTVYLQMNSLKPEDTAVYFCAADPSPVTVQAMCLPRFPVPYWGQGTQVTVST , and I need its recorded EC50.
Output: 0.106

Input: I have this binder here, chimeric nanobody 5-E11 (Fc fusion, Human-alpaca chimeric antibody (VHH on hIgG1 Fc); Only the VHH is tied to the tested molecule; also called original antibody 5-E11) VHH: ALQLVESGGGLVQPGGSLRLSCEVSGFTLDYYNIGWFRQAPGKEREGVSCSSNSGGSTYYADSVKGRFTISRDNAKNTVYLQMNSLKPEDTGVYYCAAYRGWHPSLDARVYDYWGQGTEVTVSS , and I need its recorded EC50.
Output: 0.057

Hey, just so you know, these numbers are from patent US20250382376A1.
